assay: Clinical pharmacokinetics of abexinostat, IV and oral dosing; conditions: human, in vivo; humans with cancer; solution form; 2 mg/kg; single oral dose; read-out: Systemic exposure measured as AUC0-∞
measure.name: AUC(0-inf) (µM·h)
One number for each entry, in µM·h.

IN: Return value of AUC(0-inf) for input CN(C)Cc1c(C(=O)NCCOc2ccc(C(=O)NO)cc2)oc2ccccc12 , no commentary.
OUT: 1.45

====

assay: Clinical pharmacokinetics of abexinostat, IV and oral dosing; conditions: human, in vivo, 2 mg/kg; humans; administered as immediate release capsules or an oral solution
measure.name: bioavailability

IN: Provide measured bioavailability value, entry: CN(C)Cc1c(C(=O)NCCOc2ccc(C(=O)NO)cc2)oc2ccccc12 [abexinostat]
OUT: ~27%

====

assay: Clinical pharmacokinetics of abexinostat, IV and oral dosing; conditions: human, in vivo; humans with cancer; solution form; 2 mg/kg; multiple 2-hour IV infusion doses; read-out: Systemic exposure measured as AUC0-∞
measure.name: AUC(0-inf) (µM·h)
Numbers only, in µM·h.

IN: Using known records, supply AUC(0-inf) for CN(C)Cc1c(C(=O)NCCOc2ccc(C(=O)NO)cc2)oc2ccccc12
OUT: 5.9

====

test: Clinical pharmacokinetics of abexinostat, IV and oral dosing; conditions: human, in vivo; humans; from AUC0-∞ of oral versus IV dosing at 2 mg/kg
measure.name: bioavailability

IN: Tell me its bioavailability given CN(C)Cc1c(C(=O)NCCOc2ccc(C(=O)NO)cc2)oc2ccccc12 as the entry.
OUT: ~27%
